Header: IC50 / UniProt O00329 / multiple publications
Recorded metric: IC50

line_notation=CN(CCN1CCOCC1)c1cnc2ccc(-c3ccc4oc(N)nc4c3)cc2n1 tested_target="UniProt O00329" recorded_metric=IC50 result_value="> 10 µM"
line_notation=Cc1ccccc1-n1c(Cn2nc(C#CC3CC3)c3c(N)ncnc32)cc2cccc(C)c2c1=O tested_target="UniProt O00329" recorded_metric=IC50 result_value="< 1 µM"
line_notation=Nc1nn2cccnc2c1C(=O)N1CCC[C@H]1c1cc2cccc(Cl)c2c(=O)n1-c1ccccc1 tested_target="UniProt O00329" recorded_metric=IC50 result_value="> 10 µM"
line_notation=Nc1nc2cc(-c3ccc4ncnc(N5CCC(O)CC5)c4c3)ccc2o1 tested_target="UniProt O00329" recorded_metric=IC50 result_value="< 0.1 µM"
line_notation=Nc1nc2cc(-c3cn4c(C(=O)N5CCOCC5)cnc4cn3)ccc2o1 tested_target="UniProt O00329" recorded_metric=IC50 result_value="> 10 µM"
line_notation=Nc1nc2cc(-c3cn4c(-c5cn[nH]c5)cnc4cn3)ccc2o1 tested_target="UniProt O00329" recorded_metric=IC50 result_value="< 10 µM"
line_notation=Nc1nc2cc(-c3ccc4ncc(N[C@H]5CC[C@H](O)CC5)nc4c3)ccc2o1 tested_target="UniProt O00329" recorded_metric=IC50 result_value="< 0.1 µM"

* * *

Header: IC50 / PIK3CD (Human) / multiple publications
Recorded metric: IC50

compound=Cn1c(N2CCOCC2)nc2cc(-c3ccc4oc(N)nc4c3)ccc2c1=O recorded_metric=IC50 result_value="> 10 µM"
compound=CCN(CC)c1ncc2c(n1)-c1sc(NC(=O)N3C[C@H](F)C[C@H]3C(N)=O)nc1CC2 recorded_metric=IC50 result_value="0.06 µM"
compound=C[C@H](Nc1ncnc2cccnc12)c1cc2cccc(Cl)c2c(C(=O)N2CCC(O)CC2)n1 recorded_metric=IC50 result_value="< 1 µM"
compound=CCN(CC)C1CCN(Cc2c(C)sc3c(-c4cnc(OC)c(NS(C)(=O)=O)c4)nc(N4CCOCC4)nc23)CC1 recorded_metric=IC50 result_value="0.0041 µM"
compound=Cc1cccc2cc([C@H](C)Nc3ncnc4[nH]cnc34)n(-c3cccc(F)c3)c(=O)c12 recorded_metric=IC50 result_value="< 0.1 µM"
compound="C#CCN(C(C)C(C)(C)O)[C@H]1CC[C@H](CNc2nc(N3CCOCC3)cc(-n3c(C(F)F)nc4ccccc43)n2)CC1 (some centres unmarked)" recorded_metric=IC50 result_value="0.0089 µM"
compound=CC(=O)Nc1nc2ccc(-c3nn(Cc4cc5cccc(Cl)c5c(=O)n4C(C)C)c4ncnc(N)c34)cc2s1 recorded_metric=IC50 result_value="< 0.1 µM"
compound=COc1ncc(-c2nc(N3CCOCC3)nc3c(CN4CCOCC4)c(C)sc23)cc1NS(C)(=O)=O recorded_metric=IC50 result_value="0.012 µM"
compound=Cc1ccccc1-n1c(Cn2nc(-c3cc(O)cc(F)c3)c3c(N)ncnc32)nc2nccc(C)c2c1=O recorded_metric=IC50 result_value="< 1 µM"
compound=CN1CCC(c2ccc(Nc3ncc4cc(C#N)c(=O)n(C5CCCC5)c4n3)cc2F)CC1 recorded_metric=IC50 result_value="0.658 µM"
compound=COc1ccc2c(N3CCOc4ccc(-c5cnc6nc(C)[nH]c6c5)cc4C3)nc(CN(C)C)nc2c1 recorded_metric=IC50 result_value="0.149 µM"
compound=COc1ncc(-c2nc(N3CCOCC3)nc3c(OCC4CCOCC4)cc(F)cc23)cc1NS(C)(=O)=O recorded_metric=IC50 result_value="0.027 µM"
compound=Cc1nc(NC(=O)N2CCC[C@H]2C(N)=O)sc1-c1ccnc(C(C)(C)C(F)(F)F)n1 recorded_metric=IC50 result_value="0.032 µM"
compound="C[C@H](NC(=O)c1c(N)nn2cccnc12)C1Cc2cccc(F)c2C(=O)N1c1ccccc1 (some centres unmarked)" recorded_metric=IC50 result_value="> 10 µM"
compound="Cc1nn(C(C)c2cc(Cl)c(F)c3c2O[C@@H](C)CN(C2CC(C(N)=O)C2)C3)c2ncnc(N)c12 (some centres unmarked)" recorded_metric=IC50 result_value="≤ 0.1 µM"
compound="Cc1nn(C(C)c2cc(Cl)c(C#N)c3c2OC(C)CN(C2CN(S(C)(=O)=O)C2)C3)c2ncnc(N)c12 (single isomer, unassigned)" recorded_metric=IC50 result_value="≤ 0.1 µM"
compound=Cc1cccc2cc(Cn3nc(C#C[C@@H](C)O)c4c(N)ncnc43)n(C3CCCCC3)c(=O)c12 recorded_metric=IC50 result_value="< 0.1 µM"
compound=COc1ncc(-c2nc(N3CCOCC3)nc3c(CN4CCN(CC(C)(C)O)CC4)c(C)sc23)cc1NS(C)(=O)=O recorded_metric=IC50 result_value="0.0037 µM"
compound="Cc1cccc2cc(C(C)Nc3ncnc4[nH]cnc34)n(C3CCOCC3)c(=O)c12 (centres unmarked)" recorded_metric=IC50 result_value="< 0.1 µM"
compound=C[C@H](Nc1ncnc2cccnc12)c1cc2ccccc2c(C(=O)N2CCOCC2)n1 recorded_metric=IC50 result_value="< 0.1 µM"
compound=C[C@H](NC(=O)c1c(N)nn2cccnc12)c1nn2ccc(Cl)c2c(=O)n1-c1ccccc1 recorded_metric=IC50 result_value="> 10 µM"
compound=Cc1ccccc1-n1c(Cn2nc(-c3cc(O)cc(F)c3)c3c(N)ncnc32)cc2cccc(F)c2c1=O recorded_metric=IC50 result_value="< 0.1 µM"
compound=Cc1cccc2cc([C@H](C)Nc3nc(Cl)ncc3Cl)n(-c3ccccc3)c(=O)c12 recorded_metric=IC50 result_value="< 1 µM"

* * *

Header: IC50 / PIK3CD (Human) / multiple publications
Recorded metric: IC50

compound=CC(C)(C#N)c1ccc(-c2n[nH]c3cnc4ccc(-c5ccc6ncccc6c5)cc4c23)cc1 recorded_metric=IC50 result_value="10 to 35 nM"
compound=CCN(CC)c1cnc2ccc(-c3ccc4oc(N)nc4c3)nc2n1 recorded_metric=IC50 result_value="< 10000 nM"
compound="Cc1cccc2cc(C(C)Nc3ncnc4[nH]cnc34)n(-c3ccccc3F)c(=O)c12 (stereo not drawn)" recorded_metric=IC50 result_value="< 100 nM"
compound=Cc1ccccc1-n1c(Cn2nc(I)c3c(N)ncnc32)nc2scc(C)c2c1=O recorded_metric=IC50 result_value="< 100 nM"
compound=Cc1cccc2cc(Cn3nc(-c4cnn(C)c4)c4c(N)ncnc43)n(-c3ccccc3F)c(=O)c12 recorded_metric=IC50 result_value="< 10000 nM"
compound=Cc1cccnc1-n1c(Cn2nc(Cl)c3c(N)ncnc32)nc2scc(C)c2c1=O recorded_metric=IC50 result_value="< 1000 nM"
compound=Cc1cccc2cc(Cn3nc(-c4cc(O)cc(F)c4)c4c(N)ncnc43)n(-c3ccccc3O)c(=O)c12 recorded_metric=IC50 result_value="< 100 nM"
compound=C[C@H](Nc1ncnc2scnc12)c1cc2cccc(C(=O)O)c2c(=O)n1-c1ccccc1 recorded_metric=IC50 result_value="1000 to 10000 nM"
compound=Cc1cccc2cc([C@H](C)Nc3cc(N)nc(N)n3)n(-c3ccccc3)c(=O)c12 recorded_metric=IC50 result_value="< 1000 nM"
compound=CN1CCN(c2cnc3ccc(-c4ccc5nc(N)oc5c4)cn23)CC1 recorded_metric=IC50 result_value="> 10000 nM"
compound=Cc1nn([C@@H](C)c2cc(Cl)c(F)c3c2O[C@@H](C)CN(C2CN(C[C@H](C)O)C2)C3)c2ncnc(N)c12 recorded_metric=IC50 result_value="≤ 100 nM"
compound=C[C@H](NC(=O)c1nc(-c2cccc(S(=O)(=O)NC3CC3)c2)cnc1N)c1cc2cccc(Cl)c2c(=O)n1C recorded_metric=IC50 result_value="100 to 1000 nM"
compound=CN1CCN(Cc2nnc3ccc(-c4ccc5nc(N)oc5c4)cn23)CC1 recorded_metric=IC50 result_value="> 10000 nM"
compound=Cc1cccc2cc([C@H](C)Nc3ncnc4[nH]c(Cl)cc34)n(C3CC3)c(=O)c12 recorded_metric=IC50 result_value="> 10000 nM"
compound=Nc1noc2cc(-c3ccc4nccc(-c5ccncc5)c4c3)ccc12 recorded_metric=IC50 result_value="< 10000 nM"

* * *

Header: pIC50 / PIK3CD (Human) / multiple publications
pIC50: −log10 of the molar value.
Recorded metric: pIC50

line_notation=COc1ccccc1-n1c(Cn2nc(Br)c3c(N)ncnc32)nc2scc(C)c2c1=O result_value="> 7.00"
line_notation=COc1ncc(-c2cccc3cc([C@H](C)NC(=O)c4c(N)nn5cccnc45)n(-c4ccccc4)c(=O)c23)s1 result_value="5.00 to 6.00"
line_notation=COc1ncc(-c2nc(N3CCOCC3)nc3c(CN4CCN(C(=O)C(F)(F)F)CC4)csc23)cc1NS(C)(=O)=O result_value=8.25
line_notation=C[C@H](Nc1ncnc2[nH]cnc12)c1cc2cccc(Cl)c2c(C(=O)N2CC(F)(F)C2)n1 result_value="> 7.00"
line_notation=Cc1ccccc1-n1c(Cn2nc(-c3ccc(O)c(Cl)c3)c3c(N)ncnc32)nc2scc(C)c2c1=O result_value="> 7.00"
line_notation=Cc1cccc2cc(Cn3nc(-c4ccc(F)c(O)c4)c4c(N)ncnc43)n(C(C)C)c(=O)c12 result_value="> 7.00"
line_notation=Cc1cccc2cc([C@@H](C)Nc3ncnc4[nH]cnc34)n(C3CC3)c(=O)c12 result_value="< 5.00"
line_notation=CC(=O)Nc1ncc(-c2cccc3cc([C@H](C)NC(=O)c4c(N)nn5cccnc45)n(-c4ccccc4)c(=O)c23)s1 result_value="5.00 to 6.00"
line_notation=CC(C)N1CCOc2c(F)cc(-c3nc(NC4CCN(S(C)(=O)=O)CC4)ncc3F)cc21 result_value="< 4.44"
line_notation=CC(C)N1CCN(c2cnc3ccc(-c4ccc5oc(N)nc5c4)cc3n2)CC1 result_value="> 6.00"
line_notation=Cc1cccc2cc(Cn3nc(I)c4c(N)ncnc43)n(C(C)C)c(=O)c12 result_value="> 7.00"
line_notation=N#CCc1ccc(Nc2ncnc3ccc(-c4ccncc4)cc23)cc1 result_value="< 5.00"
line_notation=Cc1ccccc1-n1c(Cn2nc(Br)c3c(N)ncnc32)nc2sc(C)c(C)c2c1=O result_value="> 7.00"
line_notation=C[C@H]1CN(c2cnc3ccc(-c4ccc5oc(N)nc5c4)cc3n2)CCN1 result_value="> 6.00"
